growth values by entry
- System: HOP-92 NSCLC
- Experiment Notes: NCI-60 one-dose screen, 48 h (100 = growth as untreated, 0 = no growth, -100 = all killed)
- Test Settings: 10 µM unless noted
About 83,000 compounds went through this panel and 20% of them were active in at least one assay; those are over-represented in the sample as a whole.
Lab book: enter the figure in %, no units written.

Record excerpt, results attached:
# Molecule, Readout Unit, growth
measured = [
    ("OCCN1CCN(c2cc(-c3cccc(OC(F)(F)F)c3)nc3ccc(N4CCCC4)cc23)CC1", "%", 34.1),
    ("CCN1C(=S)N(CC)C2C1NC(=S)N2/N=C/C=C/c1ccccc1 (configuration not stated)", "%", 62.2),
    ("C=CCNC(=O)Cc1c(-c2ccc(OC)cc2)oc2c(OC)c3c(c(OC)c12)OCO3", "%", 114),
    ("Cc1ccc(-c2nc3nc(-c4ccc(Cl)cc4)nc(N4CCCNCC4)c3o2)cc1", "%", 83.6),
    ("N=C(N)c1ccc(-c2ccc(-c3ccc(F)cc3)s2)nc1", "%", 69.8),
    ("C=C(C)[C@@H]1CC[C@]2(C(=O)O)CC[C@]3(C)[C@H](CC[C@@H]4[C@@]5(C)CCC(N)C(C)(C)[C@@H]5CC[C@]43C)[C@@H]12 (some centres not stated)", "%", 88.1),
    ("COc1ccc(-c2cc(-c3cccc(Cl)c3)c(C#N)c(=O)[nH]2)c(OC)c1", "%", 68),
    ("N#Cc1ccccc1OCC(=O)Nc1nc2c(s1)COc1ccccc1-2", "%", 106),
    ("N#C/C(=C\\c1ccccc1Cl)c1cc2ccccc2[nH]1", "%", 37.3),
    ("N#CSc1c[nH]c2ccc(/C=C/C(=O)/C=C(/C=C/c3ccc4[nH]cc(SC#N)c4c3)OB(F)F)cc12", "%", -74.1),
]

Quickly give me recorded growth for "COC(=O)c1nc(-c2ccc(C)cc2)oc1S(=O)(=O)c1ccc(Cl)cc1"
95.1

Quickly give me recorded growth for CC1=C2[C@@H](CC1)[C@]1(C)O[C@@](C(C)C)(C[C@H]1OC(=O)CO)[C@H]2OC(=O)C1CC1c1ccccc1 (some centres not stated)
87.3

* * *

- Tested on: HCT-116 colon
- Experiment Notes: NCI-60 one-dose screen, 48 h (100 = growth as untreated, 0 = no growth, -100 = all killed)
- Test Settings: 10 µM unless noted
Compounds without any hit were thinned out: in the full panel of roughly 83,000, 20% have a hit. Active and inactive are the calls of the source. The calls were made as follows: active = growth percent below 10; inactive = the rest.
Measure Name: growth

Record excerpt, results attached:
# Compound, growth
rows = [
    ("CC(C)(C)c1cc(C(C)(C)c2ccccc2)cc(Cc2cc(C(C)(C)c3ccccc3)cc(C(C)(C)C)c2O)c1O", "93.1% (inactive)"),
    ("O=C1N=c2ccccc2=C1c1sc(=S)n(C2CC(=O)N(c3ccc(Cl)cc3)C2=O)c1O (stereo not given)", "96.7% (inactive)"),
    ("COc1cc(/C=N/NC(=O)CCN2c3ccccc3Sc3ccccc32)cc(OC)c1OC", "80.1% (inactive)"),
]

Give the observed growth of "Fc1ccccc1-c1cnn2cc(-c3ccccc3)cnc12" for HCT-116 colon.
91.3% (inactive)

Give the observed growth of "CCCCCCCCCCCCCCCCCCOc1cccc(CC(=O)OCC[N+](CC)(CC)CC)c1" for HCT-116 colon.
51.7% (inactive)

Give the observed growth of "Cc1c(C(C)(C)O)cn2ncnc(Oc3ccc(NC(=O)Nc4ccc(Cl)c(C(F)(F)F)c4)cc3)c12" for HCT-116 colon.
28.6% (inactive)

Give the observed growth of "CC/C=C\C/C=C\C[C@H](O)C/C=C1/C(=O)C=C[C@@H]1C/C=C\CCCC(=O)OC" for HCT-116 colon.
-63.8% (active)

Give the observed growth of "C[C@]12CCc3c(ccc4cc(O)ccc34)[C@@H]1C[C@H](O)[C@@H]2O" for HCT-116 colon.
104% (inactive)

Give the observed growth of "COc1ccc(NC(=O)Nc2ccccc2CNc2nc(Nc3ccc(OCCN4CCCC4)cc3)ncc2Cl)cc1" for HCT-116 colon.
-20.1% (active)

Give the observed growth of "CCCCCCCCn1ccc2cc(NC(=O)CN3CCN(c4nc(C)cc(N5CCCCC5)n4)CC3)ccc21" for HCT-116 colon.
76% (inactive)
